// data source = ChEMBL document CHEMBL2346559

- TARGET OR TEST SYSTEM: Inosine-5'-monophosphate dehydrogenase (Cryptosporidium parvum) (UniProt Q8T6T2)
ASSAY METRIC: Kis (nM)
Numeric answer only, unit nM assumed.

Sample records with Kis:
C[C@H](Oc1cccc2ccccc12)C(=O)Nc1ccc2oc(-c3cncs3)nc2c1	1.6
C[C@@H](C(=O)Nc1ccc2oc(-c3ccncc3)nc2c1)c1ccccc1	100
CC(Oc1ccc(Cl)cc1Cl)C(=O)Nc1ccc2oc(-c3ccncc3)nc2c1 (centres undefined)	58

Please find the next molecule below.
**Q:** Look up Inosine-5'-monophosphate dehydrogenase (Cryptosporidium parvum) (UniProt Q8T6T2) data: Kis of C[C@H](Oc1cccc(Cl)c1Cl)C(=O)Nc1cc(Cl)c2oc(-c3ccncc3)nc2c1 , then report it.
**A:** 210

----------
Reported IC50 values for a set of molecules
- TARGET OR TEST SYSTEM: Inosine-5'-monophosphate dehydrogenase (Cryptosporidium parvum, UniProt Q8T6T2)
- Sequence (Q8T6T2 whole entry): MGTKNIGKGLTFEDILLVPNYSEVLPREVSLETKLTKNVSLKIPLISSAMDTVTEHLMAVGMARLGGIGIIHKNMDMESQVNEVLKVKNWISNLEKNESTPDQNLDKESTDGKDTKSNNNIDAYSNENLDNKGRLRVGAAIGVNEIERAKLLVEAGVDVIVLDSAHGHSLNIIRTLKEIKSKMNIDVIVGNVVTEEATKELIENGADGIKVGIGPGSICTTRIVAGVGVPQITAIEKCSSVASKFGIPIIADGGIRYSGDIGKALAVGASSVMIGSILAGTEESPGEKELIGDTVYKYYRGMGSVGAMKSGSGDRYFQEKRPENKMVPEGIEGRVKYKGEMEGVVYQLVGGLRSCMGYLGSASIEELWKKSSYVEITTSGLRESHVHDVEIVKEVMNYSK
- PROTOCOL DESCRIPTION: Inhibition of Cryptosporidium parvum N-terminal His6-tagged IMPDH-mediated NADH production expressed in Escherichia coli BL21(DE3) preincubated for 5 mins prior to substrate addition by fluorescence assay in presence of BSA
Answers without a unit are incomplete; give the number and then its unit.

**Q:** Provide IC50 value for the following molecule: CC(Oc1ccc(Cl)cc1)C(=O)Nc1ccc2oc(-c3ccncc3)nc2c1 (stereo not drawn)
**A:** 0.118 µM

**Q:** Provide IC50 value for the following molecule: CC(Oc1cccc2ccccc12)C(=O)Nc1ccc2oc(-c3ccncc3)nc2c1 (stereo not drawn)
**A:** 0.014 µM

**Q:** Provide IC50 value for the following molecule: C[C@@H](C(=O)Nc1ccc2oc(-c3ccncc3)nc2c1)c1ccccc1
**A:** 0.028 µM

**Q:** Provide IC50 value for the following molecule: C[C@@H](Oc1cccc2ccccc12)C(=O)Nc1ccc2oc(-c3ccncc3)nc2c1
**A:** 0.38 µM

**Q:** Provide IC50 value for the following molecule: C[C@H](Oc1cccc([N+](=O)[O-])c1Cl)C(=O)Nc1ccc2oc(-c3ccncc3)nc2c1
**A:** 0.006 µM

**Q:** Provide IC50 value for the following molecule: CC(C(=O)Nc1ccc2oc(-c3ccncc3)nc2c1)c1ccccc1 (stereo not drawn)
**A:** 0.13 µM

**Q:** Provide IC50 value for the following molecule: C[C@H](Oc1cccc(Cl)c1Cl)C(=O)Nc1ccc2nc(-c3ccncc3)oc2c1
**A:** 0.004 µM

**Q:** Provide IC50 value for the following molecule: CC(Oc1ccc(Cl)cc1Cl)C(=O)Nc1ccc2oc(-c3ccccn3)nc2c1 (stereo not drawn)
**A:** 0.8 µM

**Q:** Provide IC50 value for the following molecule: CC(Oc1cccc(Cl)c1)C(=O)Nc1ccc2oc(-c3ccncc3)nc2c1 (stereo not drawn)
**A:** 0.032 µM
